Ref: the nanobody polyreactivity screen of Harvey et al. (2022)

assay: yeast display, Sf9 membrane polyspecificity reagent, FACS + sequencing; frameworks hold sequencing errors
Measurement type: polyreactivity (PSR sort gate)

QVQLVESGGGLVQAGGSLRLSCAATGYIIQHYAMGWYRQSAGKERELVAAITSGGSTTYADSVKWRFTISRDNAKNTVFLQMNSLKPEDSAVYYCKALRRDRYTRKGYEYWGQGTQVTVSS : high polyreactivity
QVQLLESGGGIVQAGGSLRLSCGASGSTFTLNAMGWYRQAPGTEREFVADISWSSGRTYYADSVKGRFTISRDNAKNTVYVQMNSLKQEDTAVYYCATDDFWNVKFYAYYPEFDYWGQGTQVNVSS : low polyreactivity
QVQLVESGGGLVQAGGSLRLSCAASGSIFKYYTMGWYRQAPGKERELVSGISYRGGSTYYADSVKGRFTISRDNAKNTVYLQMNSLKPEDTAVYYCNAVQLSGGDYWGQGTQVTVSS : high polyreactivity
QVQLVESGGGLVQAGGRLRLSCAASGFNFHYYAMGWYRQAPGKERELVAAISWSSGRTYYADSVKGRFTISRDNEKNTVYLQMNSLKPEDTAVYYCAASSYNRGDYWGQGTQVTVSS : high polyreactivity

# query: polyreactivity (PSR sort gate) of entry "QLQLVESGGGLDQAGGSLRLSCAASGGTFFKNAMGWYRQAPGNERELVAVIDTISTSTYYAESVKGRFTISRDNAKNTVYLQMNSLKPEDTAVYYCAAEYGPGLTEGLYYYWGQGTQVTVSS" high polyreactivity

Quick check: polyreactivity (PSR sort gate) of "QLQLVESGGGLVQAGGSLRLSCAASGRTFRSYTMGRYRQAPGKERELVASITRSGVSTYYADSVKGRFTISRDNAKNTVYLQMNSLKPEDTAVYYCAAYSVFRSYDYWGQGTQVTVSS" ? high polyreactivity

// query polyreactivity (PSR sort gate) value for entry "QVQLVESGGGLVQAGGSLRLSCAASGFTFIYYAMGWYRQAPGKERELVAAISRVDSTYYADSVKGRFTISSDNAKNTIYLQMNRLKPEDTAVYYFAAASQVRRDHGYWGQGTQVTVSS" low polyreactivity

Given the entry "QVQLGESGGGLVLAGGSLRLSCAASGYDMGWYRHAPGKESELVAAISRGGSTSYADSVKGRFTISRDNAKNTVYLQMNSLKPEDTAVYYCAARYGSYRVGYDYWGQGTQVTVSS" , report its measured polyreactivity (PSR sort gate). low polyreactivity

Reported polyreactivity (PSR sort gate) for "QVQLVESGGGLVQAGGSLRLSCAASGFTFRGYAMGWYRQAPGKERELVAAITWSGGSTYYADSVKGRFTISRDNAKYTVYLQMNSLKPEDTAVYYCNAYYASGYRQYDYWGQGTQVTVSS" : what is it? high polyreactivity

----------
assay: yeast display, Sf9 membrane polyspecificity reagent, FACS + sequencing; frameworks hold sequencing errors
Measurement type: polyreactivity (PSR sort gate)

Example entries begin here.
QVQLVESGGGLVQAGGSLRLSCAASGRIIIEYAMGWYRQAPGKERELVASITSSGGRTTFADSVKGRFTISRDNAKNTVYLQMNSLKPEDTSVYYCAAKYYWYYSYSGIPLFDYWGQGTQVTVSS : low polyreactivity
QVQLVESGVGLVQAGGSLRLSCAASGITFYSYAMGWYRQAPGKERELVAAITLTGGTTYYADSVKGRFTISRDNAKNTVYLQMKSLKPEDTAVYYCAAQYWWWSLFEYDSWGQGTQVTVSS : low polyreactivity
QVQLVESGGGLVQAGGSLRLSCAASGSTFYSYAMGWYRQAPGKEREMVAAITRGGSTNYADSVKGRFTISRDNAKNTVYLQMNSLKPDDTAVYYCAKSKYTGTAFGGKKTWFNYWGQGTQVTVSS : high polyreactivity
QVQLVESGGGLVQAGGSLRLSCAASGRIIFIYAMGWYRQPPGKERELVAGINRTGGSTYYADSVKGRFTISRDNAKNTVYLQMNSLKPEDTAVYYCAAVSYYASDYRYDYWGQGTQVTVSS : low polyreactivity

Consider the sequence "QVQLQECGGALVQAGGSLRLSCAASGTFSNSEKWLYCQAPGKERELVSTIGVGGSTNYADSVKGRFTISRDNAKNTVYLQLNSLKPEDTAVYHCAAYGAASYFHYYRGQGTQVTVSS" and give its measured polyreactivity (PSR sort gate). low polyreactivity

// lookup polyreactivity (PSR sort gate) for "QVQLVESGGGLVQAGGSLRLSCAASGFTFWRYAMGWYRQAPGKERELVAAISRSGGGTYYADSVKGRFTISRDNAKNTVYLQMNSLKPEDTAVYYCAAALYKGSGELDYWGQGTQVTVSS" high polyreactivity

Please give the measured polyreactivity (PSR sort gate) for this sequence: "QVQLVESGGGLVQAGGSLRLSCAASGSIFYGYTMGWYRQEPGKERELVAAIRKSGGSTNYADSVKGRFTISRDNAKNTVFLQMNSLKPEDTAVYYCAAAYYRGRGYYWGQGTQVTVSS" high polyreactivity

Reported polyreactivity (PSR sort gate), sequence "QVQLVESGGGLVQAGGSLRLSCAPSRFIFGHYAMGWYRQAPGKERELVAGINSSGGSTHYADSVKGRFTISRDNAKNTVYLQMNSLKPEDTAVYYCAADVYRFYAGSRYYYWGQGTQVTVSS" : ____ low polyreactivity
